- Tested on: J82 bladder carcinoma cells
- EXPERIMENT NOTES: Antiproliferative assay (MTT reduction), J82 bladder carcinoma cells
- Assay type: cell-based, human
- ASSAY SETUP: Homo sapiens, 72 h; J82 bladder carcinoma; 3 days treatment, MTT reduction; mean ± SD; >100 µM considered inactive
MEASURE: IC50

# MOLECULE, IC50
records = [
    ("C=C1CCC2[C@](C)(CCC[C@]2(C)C(=O)OC)[C@H]1CC[C@@H](C)CCOCCCCOCC[C@H](C)CC[C@H]1C(=C)CCC2[C@]1(C)CCC[C@]2(C)C(=O)OC (some centres unmarked) [Compound 8]", "> 100 µM"),
    ("C=C1CCC2[C@](C)(CCC[C@]2(C)C(=O)O)[C@H]1CC[C@@H](C)CC(=O)O (some centres unmarked) [Compound 2, Labd-8(17)-en-15,19-dioic acid]", "> 100 µM"),
    ("C=C1CCC2[C@](C)(CCC[C@]2(C)C(=O)OC)[C@H]1CC[C@@H](C)CCn1cc(CO)nn1 (some centres unmarked) [Compound 4]", "60.7 µM"),
]

Exam item: Please report the recorded IC50 for C=C1CCC2[C@](C)(CCC[C@]2(C)C(=O)OC)[C@H]1CC[C@@H](C)CCn1cc(CCC(=O)OCC[C@H](C)CC[C@H]2C(=C)CCC3[C@]2(C)CCC[C@]3(C)C(=O)OC)nn1 (some centres unmarked) [Compound 20] .
Marked response: > 100 µM

Exam item: Please report the recorded IC50 for C=C1CCC2[C@](C)(CCC[C@]2(C)C(=O)OC)[C@H]1CC[C@@H](C)CCn1cc(COC(=O)C[C@H](C)CC[C@H]2C(=C)CCC3[C@]2(C)CCC[C@]3(C)C(=O)OC)nn1 (some centres unmarked) [Compound 16] .
Marked response: > 100 µM

---

Entries annotated with measured IC50
- Tested on: HL-60 cells
- EXPERIMENT NOTES: Antiproliferative assay (MTT reduction), HL-60 promyelocytic leukemia cells
- Type: cell-based, human
- ASSAY SETUP: Homo sapiens, 72 h; HL-60 promyelocytic leukemia; 3 days treatment, MTT reduction; mean ± SD; >100 µM considered inactive
Give the value, in units of µM, as a plain number.

Illustrative cases are given below, each with its answer.
# COMPOUND, IC50 (µM)
rows = [
    ("C=C1CCC2[C@](C)(CCC[C@]2(C)C(=O)OC)[C@H]1CC[C@@H](C)CCn1cc(CCO)nn1 (some centres unmarked)", 48.9),
    ("C=C1CCC2[C@](C)(CCC[C@]2(C)C(=O)OC)[C@H]1CC[C@@H](C)CCOCCCCOCC[C@H](C)CC[C@H]1C(=C)CCC2[C@]1(C)CCC[C@]2(C)C(=O)OC (some centres unmarked)", 57.8),
    ("C=C1CCC2[C@](C)(CCC[C@]2(C)C(=O)OC)[C@H]1CC[C@@H](C)CCOC(=O)c1ccccc1C(=O)OCC[C@H](C)CC[C@H]1C(=C)CCC2[C@]1(C)CCC[C@]2(C)C(=O)OC (some centres unmarked)", 55.6),
    ("C=C1CCC2[C@](C)(CCC[C@]2(C)C(=O)OC)[C@H]1CC[C@@H](C)CCOCCCCCOCC[C@H](C)CC[C@H]1C(=C)CCC2[C@]1(C)CCC[C@]2(C)C(=O)OC (some centres unmarked)", 32.6),
]

Kindly review the next compound as well.
Exam item: Please report the recorded IC50 for C=C1CCC2[C@](C)(CCC[C@]2(C)C(=O)OC)[C@H]1CC[C@@H](C)CCO (some centres unmarked) [Compound 1, 15-Hydroxyimbricatolic acid methyl ester] .
Marked response: 47.5
